# METHOD_DESCRIPTION: Binding affinity to (AGCCAGACA)9-MLP element (unknown origin) transiently transfected in human HepG2 cells assessed as inhibition of TGF-beta-induced Smad-dependent transcriptional activity preincubated for 1 hr before TGF-beta stimulation measured after 16 hrs by luciferase reporter assay
# Format: cell-based
Task for the reader: assign each of the following compounds its reported IC50.
Answers are plain numbers, in nM.

| COMPOUND | ENDPOINT_LABEL | ENDPOINT_RESULT |
| --- | --- | --- |
| C[C@H]1CCC/C=C/C(=O)c2c(O)cc(O)cc2CC(=O)O1 [DEHYDROCURVULARIN] | IC50 | 1700 |
| C[C@H]1CCCCCC(=O)c2c(O)cc(O)cc2CC(=O)O1 | IC50 | 34200 |

Hi there! I need IC50 for each item below, if you can.
1. C/C1=C\CCC(C)C(C)OC(=O)Cc2c(Cl)c(O)cc(O)c2C1=O (stereo not given)
2. C/C1=C\CCC(C)(O)C(C)OC(=O)Cc2c(Cl)c(O)cc(O)c2C1=O (stereo not given)

1: 210; 2: 136
